Biological target: human TLR7 (Homo sapiens, UniProt Q9NYK1)
Sequence (Q9NYK1 27-1049): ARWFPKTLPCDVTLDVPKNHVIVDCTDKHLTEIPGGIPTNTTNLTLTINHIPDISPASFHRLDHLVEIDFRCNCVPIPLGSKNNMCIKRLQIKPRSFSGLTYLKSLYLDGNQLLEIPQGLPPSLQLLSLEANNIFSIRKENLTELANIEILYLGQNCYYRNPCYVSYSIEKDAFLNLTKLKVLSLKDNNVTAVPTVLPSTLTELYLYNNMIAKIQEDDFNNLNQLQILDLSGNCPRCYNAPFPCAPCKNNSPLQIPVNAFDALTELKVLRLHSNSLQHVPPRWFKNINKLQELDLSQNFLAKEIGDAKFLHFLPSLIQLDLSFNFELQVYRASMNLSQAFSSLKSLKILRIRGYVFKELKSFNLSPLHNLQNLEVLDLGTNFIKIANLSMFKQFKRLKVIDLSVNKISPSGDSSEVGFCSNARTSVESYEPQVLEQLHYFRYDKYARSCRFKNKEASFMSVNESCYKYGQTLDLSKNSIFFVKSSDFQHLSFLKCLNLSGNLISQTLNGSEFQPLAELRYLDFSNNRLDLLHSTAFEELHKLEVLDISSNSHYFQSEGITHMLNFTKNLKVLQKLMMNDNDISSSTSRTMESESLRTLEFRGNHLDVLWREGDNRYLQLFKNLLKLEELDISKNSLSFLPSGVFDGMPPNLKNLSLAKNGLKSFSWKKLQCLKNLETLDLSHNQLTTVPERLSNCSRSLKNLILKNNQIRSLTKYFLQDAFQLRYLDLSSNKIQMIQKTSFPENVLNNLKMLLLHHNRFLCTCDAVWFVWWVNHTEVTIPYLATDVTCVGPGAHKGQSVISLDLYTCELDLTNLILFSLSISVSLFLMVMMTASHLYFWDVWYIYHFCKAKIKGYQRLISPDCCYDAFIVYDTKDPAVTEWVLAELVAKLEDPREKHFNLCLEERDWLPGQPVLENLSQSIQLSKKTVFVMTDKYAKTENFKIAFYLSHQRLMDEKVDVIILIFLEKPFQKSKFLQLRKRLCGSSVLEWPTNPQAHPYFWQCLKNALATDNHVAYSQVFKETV
Test: TLR7 inhibition reporter assay (HEK-Blue SEAP)
Conditions: HEK-Blue cells overexpressing human TLR7, stimulated with gardiquimod 7.5 μM, 22 hour incubation
pIC50: −log10 of the molar value.
Property measured: pIC50

Cc1cc(-c2[nH]c3ccc(OCCN4CCOCC4)cc3c2C(C)C)cn2ncnc12 ... 8.09
Cc1cc(-c2[nH]c3ccc(OCC4CCN(C(C)C)CC4)cc3c2C(C)C)cn(C)c1=O ... 8.25
Cc1cc(-c2[nH]c3ccc(OCCN4CCCC4)cc3c2C(C)C)ccn1 ... 7.19

1. Cc1cc(-c2[nH]c3ccc(OC4CCN(CCO)CC4)cc3c2C(C)C)cc(C)n1
2. CNCCOc1ccc2[nH]c(-c3ccnc(C)c3)c(C(C)C)c2c1
[Q] Compare pIC50: is it lower for 1 or for 2 ? Kindly state the label of the option you pick.
[A] 2
(2: 6.93, 1: 8.02)

I. Cc1cc(-c2[nH]c3ccc(OC4CCN(CC(C)(C)O)CC4)cc3c2C(C)C)cn2ncnc12
II. Cc1cc(-c2[nH]c3ccc(O[C@H]4CCCNC4)cc3c2C(C)C)cn2ncnc12
[Q] Sort I and II by pIC50 descending and give the first. Kindly state the label of the option you pick.
[A] II
(II: 9.10, I: 8.20)

----------
Molecular target: human TLR8 (Homo sapiens)
Sequence (Q9NR97 27-1041): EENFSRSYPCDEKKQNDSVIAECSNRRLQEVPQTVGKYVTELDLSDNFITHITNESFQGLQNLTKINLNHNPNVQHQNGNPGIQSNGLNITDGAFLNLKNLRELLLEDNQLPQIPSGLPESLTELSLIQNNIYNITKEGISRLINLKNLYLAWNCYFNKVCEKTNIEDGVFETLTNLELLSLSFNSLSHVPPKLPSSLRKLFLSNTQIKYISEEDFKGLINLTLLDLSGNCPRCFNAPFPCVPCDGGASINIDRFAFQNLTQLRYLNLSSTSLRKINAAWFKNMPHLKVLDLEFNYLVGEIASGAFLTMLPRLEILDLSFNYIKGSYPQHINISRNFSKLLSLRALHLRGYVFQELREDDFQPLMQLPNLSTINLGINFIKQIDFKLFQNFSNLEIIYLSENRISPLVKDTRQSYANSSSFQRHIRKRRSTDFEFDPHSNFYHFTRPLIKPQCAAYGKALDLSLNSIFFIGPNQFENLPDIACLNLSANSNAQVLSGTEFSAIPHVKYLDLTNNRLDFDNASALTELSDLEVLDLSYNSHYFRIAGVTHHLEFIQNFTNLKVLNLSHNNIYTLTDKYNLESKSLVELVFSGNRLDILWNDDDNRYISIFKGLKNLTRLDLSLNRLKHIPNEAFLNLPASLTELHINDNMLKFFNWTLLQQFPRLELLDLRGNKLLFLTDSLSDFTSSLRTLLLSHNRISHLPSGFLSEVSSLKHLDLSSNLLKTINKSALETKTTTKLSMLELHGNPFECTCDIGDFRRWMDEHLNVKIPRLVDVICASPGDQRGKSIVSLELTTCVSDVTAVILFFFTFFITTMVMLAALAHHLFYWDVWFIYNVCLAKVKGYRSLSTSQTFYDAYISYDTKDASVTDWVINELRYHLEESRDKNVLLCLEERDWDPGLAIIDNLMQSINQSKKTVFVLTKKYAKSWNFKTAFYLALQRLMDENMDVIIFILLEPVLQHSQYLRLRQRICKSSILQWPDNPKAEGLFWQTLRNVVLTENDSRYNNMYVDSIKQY
Assay: TLR8 inhibition reporter assay (HEK-Blue SEAP)
Settings: HEK-Blue cells overexpressing human TLR8, stimulated with R848 15.9 μM, 22 hour incubation
pIC50: −log10 of the molar value.
Property measured: pIC50

See these solved cases before continuing.
COc1ccc(-c2[nH]c3ccc(OCC(=O)NC4CCCC(N)C4)cc3c2C(C)C)cc1OC (centres unmarked) ... 7.27
Cc1cc(-c2[nH]c3ccc(O[C@@H]4CCN(C)C4)cc3c2C(C)C)ccn1 ... 8.19
Cc1cc(-c2[nH]c3ccc(OCC(=O)NC[C@@H](F)C(C)(C)O)cc3c2C(C)C)ccn1 ... 6.11
COCCN1CCC(COc2ccc3[nH]c(-c4cc(C)nc(C)c4)c(C(C)C)c3c2)CC1 ... 8.28
Cc1cc(-c2[nH]c3ccc(OCC4CCNCC4)cc3c2C(C)C)cc(C)n1 ... 8.36

a. Cc1cc(-c2[nH]c3ccc(OCC4CCNCC4)cc3c2C(C)C)ccn1
b. Cc1cc(-c2[nH]c3ccc(OC4CCN(C5CCOCC5)CC4)cc3c2C(C)C)cn2ncnc12
[Q] Compare pIC50: is it lower for a or for b ? Kindly state the label of the option you pick.
[A] a

I. Cc1c(-c2[nH]c3ccc(OCC4CCN(C)CC4)cc3c2C(C)C)cn2cnnc2c1C
II. COc1ccc(-c2[nH]c3ccc(O[C@H]4CCNC4)cc3c2C(C)C)cc1OC
[Q] Sort I and II by pIC50 descending and give the first. Kindly state the label of the option you pick.
[A] I
(I: 8.51, II: 7.50)

a. Cc1c(-c2[nH]c3ccc(OCC4CCN(C(C)C)CC4)cc3c2C(C)C)cn(C)c(=O)c1C
b. Cc1cc(-c2[nH]c3ccc(OC4CCN(CC(C)(C)O)CC4)cc3c2C(C)C)cc(C)n1
c. COc1ccc(-c2[nH]c3ccc(OCCN4CCOCC4)cc3c2C(C)C)cc1OC
[Q] Please produce an ascending ranking of these compounds based on pIC50. // format: requested-order list of labels
[A] c, a, b
(c: 7.20, a: 8.74, b: 8.96)

I. Cc1c(-c2[nH]c3ccc(OCC4CCN(CC(=O)N(C)C)CC4)cc3c2C(C)C)cn2cnnc2c1C
II. Cc1cc(-c2[nH]c3ccc(OC4CCN(C)CC4)cc3c2C(C)C)cc(C)n1
III. Cc1cc(-c2[nH]c3ccc(OC4CCN(CC(=O)O)CC4)cc3c2C(C)C)cc(C)n1
[Q] Please produce an ascending ranking of these compounds based on pIC50. // format: requested-order list of labels
[A] III, I, II
(III: 6.34, I: 7.78, II: 9.15)

A. Cc1cc(-c2[nH]c3ccc(OC4CCNCC4)cc3c2C(C)C)ccn1
B. COc1ccc(-c2[nH]c3ccc(OCC(=O)NC4CCC(N)CC4)cc3c2C(C)C)cc1OC (centres unmarked)
[Q] Sort A and B by pIC50 descending and give the first. Kindly state the label of the option you pick.
[A] A

----------
Biological target: human TLR9 (Homo sapiens)
Assay: TLR9 inhibition reporter assay (HEK-Blue SEAP)
Conditions: HEK-Blue cells overexpressing human TLR9, stimulated with ODN2006 5 nM, 22 hour incubation
Property measured: IC50 (nM)

P. Cc1cc(-c2[nH]c3ccc(OCC(=O)NCCC4CCCNC4)cc3c2C(C)C)ccn1 (centres unmarked)
Q. Cc1cc(-c2[nH]c3ccc(OCC(=O)N4CCC5(CCNCC5)C4)cc3c2C(C)C)ccn1
R. Cc1c(-c2[nH]c3ccc(OC4CCN(C)CC4)cc3c2C(C)C)cn2cnnc2c1C
[Q] Number of compounds to sort: 3. Sort criterion: IC50, ascending. // format: requested-order list of labels
[A] Q, R, P
(Q: 296 nM, R: 494 nM, P: 937 nM)

a. Cc1cc(-c2[nH]c3ccc(OC4CCN(C)CC4)cc3c2C(C)C)cc(C)n1
b. CCc1c(-c2ccnc(C)c2)[nH]c2ccc(OC3CCNCC3)cc12
c. CCc1c(-c2ccnc(C)c2)[nH]c2ccc(OCC3CCNCC3)cc12
[Q] Please produce an ascending ranking of these compounds based on IC50. // format: requested-order list of labels
[A] c, a, b
(c: 218 nM, a: 379 nM, b: 1810 nM)

----------
Target: human TLR9 (Homo sapiens, UniProt Q9NR96)
Construct: host or cells: HEK-Blue cells
Sequence (Q9NR96 26-1032): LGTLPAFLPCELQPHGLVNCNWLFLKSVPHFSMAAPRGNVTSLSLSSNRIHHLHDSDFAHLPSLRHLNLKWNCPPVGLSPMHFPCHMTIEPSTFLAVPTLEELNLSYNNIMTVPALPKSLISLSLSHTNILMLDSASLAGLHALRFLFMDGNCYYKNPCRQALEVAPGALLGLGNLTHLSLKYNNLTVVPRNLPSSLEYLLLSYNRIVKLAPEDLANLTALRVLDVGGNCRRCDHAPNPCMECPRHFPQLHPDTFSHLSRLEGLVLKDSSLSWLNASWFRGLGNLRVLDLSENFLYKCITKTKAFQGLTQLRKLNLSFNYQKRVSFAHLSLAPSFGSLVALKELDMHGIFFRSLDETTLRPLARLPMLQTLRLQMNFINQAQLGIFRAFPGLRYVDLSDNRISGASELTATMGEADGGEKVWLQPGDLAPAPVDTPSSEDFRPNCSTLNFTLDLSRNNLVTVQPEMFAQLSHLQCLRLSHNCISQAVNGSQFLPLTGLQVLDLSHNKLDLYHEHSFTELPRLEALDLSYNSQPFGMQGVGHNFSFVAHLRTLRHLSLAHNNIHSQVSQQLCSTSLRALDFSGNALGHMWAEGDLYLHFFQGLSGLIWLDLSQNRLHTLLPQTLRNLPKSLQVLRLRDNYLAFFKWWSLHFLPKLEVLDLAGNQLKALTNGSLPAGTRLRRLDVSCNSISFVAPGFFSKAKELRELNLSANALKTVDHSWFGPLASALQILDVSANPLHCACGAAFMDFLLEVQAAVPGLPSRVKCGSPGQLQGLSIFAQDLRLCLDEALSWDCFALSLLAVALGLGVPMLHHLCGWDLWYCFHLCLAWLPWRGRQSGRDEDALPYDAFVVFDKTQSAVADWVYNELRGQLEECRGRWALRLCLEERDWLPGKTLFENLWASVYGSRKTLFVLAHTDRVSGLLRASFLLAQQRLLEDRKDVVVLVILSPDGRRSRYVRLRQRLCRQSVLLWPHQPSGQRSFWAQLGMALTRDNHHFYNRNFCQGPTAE
Assay: TLR9 inhibition reporter assay (HEK-Blue SEAP)
Assay type: cell-based
Conditions: HEK-Blue cells overexpressing human TLR9, stimulated with ODN2006 5 nM, 22 hour incubation
pIC50: −log10 of the molar value.
Property measured: pIC50

See these solved cases before continuing.
Cc1cc(-c2[nH]c3ccc(OCCN4CCC(F)(F)CC4)cc3c2C(C)C)cn2ncnc12 ... 4.73
COc1ccc(-c2[nH]c3ccc(OCC(=O)N4C[C@H]5C[C@@H]4CN5)cc3c2C(C)C)cc1OC ... 5.70
Cc1cc(-c2[nH]c3ccc(OCc4c[nH]cn4)cc3c2C(C)C)ccn1 [Example 176] ... 4.87
Cc1cc(-c2[nH]c3ccc(OCC4CN(CCS(C)(=O)=O)C4)cc3c2C(C)C)cn2ncnc12 ... 5.22
COc1ccc(-c2[nH]c3ccc(OCC(=O)NC4CCCC(N)C4)cc3c2C(C)C)cc1OC (centres unmarked) ... 6.24
Cc1cc(-c2[nH]c3ccc(OCC4CCNCC4)cc3c2C(C)C)cn2ncnc12 ... 5.96
Cc1c(-c2[nH]c3ccc(OCC4CCN(CC(=O)N(C)C)CC4)cc3c2C(C)C)cn2cnnc2c1C ... 5.16
CNC(=O)CN1CCC(COc2ccc3[nH]c(-c4cn(C)c(=O)c(C)c4C)c(C(C)C)c3c2)CC1 ... 4.77

A. Cc1cc(-c2[nH]c3ccc(OC4CCCNC4)cc3c2C(C)C)ccn1 (centres unmarked)
B. Cc1cc(-c2[nH]c3ccc(OCC4CCNCC4)cc3c2C(C)C)cc(C)n1
C. Cc1cc(-c2[nH]c3ccc(OCCN4CCOCC4)cc3c2C(C)C)ccn1
[Q] Please produce an ascending ranking of these compounds based on pIC50. // format: requested-order list of labels
[A] C, A, B

I. Cc1cc(-c2[nH]c3ccc(OCC4CCCN(CC(C)(C)O)C4)cc3c2C(C)C)cc(C)n1 (centres unmarked)
II. Cc1cc(-c2[nH]c3ccc(OC4CCN(CC(C)C)CC4)cc3c2C(C)C)cn(C)c1=O
III. Cc1cc(-c2[nH]c3ccc(OC4CCN(C(C)C)CC4)cc3c2C(C)C)ccn1
[Q] Order the records by pIC50, with each subsequent value no larger than the one before. // format: requested-order list of labels
[A] I, III, II

I. Cc1cc(-c2[nH]c3ccc(OC4CCN(C(=O)CN(C)C)CC4)cc3c2C(C)C)ccn1
II. Cc1c(-c2[nH]c3ccc(OC4CCN(C)CC4)cc3c2C(C)C)cn(C)c(=O)c1Cl
III. Cc1cc(-c2[nH]c3ccc(OCC4CCN(CC(C)(C)O)CC4)cc3c2C(C)C)cc(C)n1
[Q] Please produce an ascending ranking of these compounds based on pIC50. // format: requested-order list of labels
[A] II, I, III

P. COc1ccc(-c2[nH]c3ccc(OCCN4CCOCC4)cc3c2C(C)C)cc1OC
Q. CCc1c(-c2ccnc(C)c2)[nH]c2ccc(O[C@H]3CCNC3)cc12
R. Cc1cc(-c2[nH]c3ccc(OC4CCN(C(=O)CN(C)C)CC4)cc3c2C(C)C)cn2ncnc12
S. Cc1c(-c2[nH]c3ccc(OCC4CCN(C(C)C)CC4)cc3c2C(C)C)cn2cnnc2c1C
[Q] Order the records by pIC50, with each subsequent value no larger than the one before. // format: requested-order list of labels
[A] Q, S, P, R
(Q: 6.25, S: 5.79, P: 5.30, R: 5.01)

Numbers sourced from patent US12030878B2.
